- System: FaDu cells
- test.method.notes: In vitro cytotoxicity, 4 h exposure oxic/anoxic, 5-day regrowth, sulforhodamine B
- Type: cell-based
- condition.info: Homo sapiens, 4 h, read-out: IC50 Anoxic
value.type: IC50 (µM)

COCC(O)Cn1ccnc1[N+](=O)[O-] (stereo not shown) [Compound 1, misonidazole, reference compound]	1300

* * *

- Test system: UT-SCC-74B cells
- test.method.notes: In vitro cytotoxicity, 4 h exposure oxic/anoxic, 5-day regrowth, sulforhodamine B
- Format: cell-based, human
- condition.info: Homo sapiens, 4 h, read-out: IC50 Oxic
value.type: IC50

COCC(O)Cn1ccnc1[N+](=O)[O-] (stereo not shown) [Compound 1, misonidazole, reference compound]	> 25 mM

* * *

- Tested on: UT-SCC-74B cells
- test.method.notes: In vitro cytotoxicity, 4 h exposure oxic/anoxic, 5-day regrowth, sulforhodamine B
- Assay type: cell-based, human
- condition.info: IC50(oxic)/IC50(anoxic)
HCR vs 8: at or above is MET, below is NOT MET.

O=[N+]([O-])c1nccn1CCS(=O)(=O)NCCN1CCOCC1	NOT MET
COCCNS(=O)(=O)Cn1ccnc1[N+](=O)[O-]	MET
Cc1ncc([N+](=O)[O-])n1CCS(=O)(=O)N1CCC(N(C)C)CC1	NOT MET
O=[N+]([O-])c1cncn1CCS(=O)(=O)NCCN1CCOCC1	NOT MET
Cc1ncc([N+](=O)[O-])n1CCS(=O)(=O)NCCN1CCOCC1	NOT MET
O=[N+]([O-])c1nccn1CS(=O)(=O)NCC(O)CO (stereo not shown)	NOT MET
O=[N+]([O-])c1cncn1CS(=O)(=O)NCCO	NOT MET
O=[N+]([O-])c1nccn1CS(=O)(=O)NCCN1CCOCC1	MET
O=[N+]([O-])c1nccn1CS(=O)(=O)NCCO	MET
Cc1ncc([N+](=O)[O-])n1CCS(=O)(=O)NCCCN1CCOCC1	NOT MET
COCC(O)Cn1ccnc1[N+](=O)[O-] (stereo not shown) [Compound 1, misonidazole, reference compound]	MET
O=[N+]([O-])c1cncn1CS(=O)(=O)NCCN1CCOCC1	MET

* * *

- test.method.notes: Solubility in αMEM culture medium (HPLC of saturated solutions)
- Assay type: physicochemical
- condition.info: αMEM culture medium with 5% foetal calf serum and 1% DMSO, plasma or biological fluid, kinetic from dmso stock, α-MEM culture medium containing 5% foetal calf serum, 37 °C
value.type: solubility

O=[N+]([O-])c1nccn1CCNS(=O)(=O)CCO	> 101 mM
O=[N+]([O-])c1nccn1CS(=O)(=O)NC(CO)C(O)CO (centres unmarked)	95.8 mM
O=[N+]([O-])c1cncn1CCS(=O)(=O)NCCN1CCOCC1	83 mM
O=[N+]([O-])c1nccn1CCS(=O)(=O)NCC(O)CO (centres unmarked)	84.3 mM
O=[N+]([O-])c1nccn1CS(=O)(=O)NCC(O)CO (centres unmarked)	110 mM

* * *

- System: HCT116/54C tumours
- test.method.notes: Tumour radiosensitisation: ex vivo clonogenic assay
- Format: in vivo, NIH-III mice
- condition.info: 2.2 mmol/kg i.v. + 10 Gy, one-way ANOVA
value.type: enhancement of tumour killing of radiotherapy (RAD vs drug + RAD)

O=[N+]([O-])c1cncn1CS(=O)(=O)NCCOP(=O)(O)O	not
O=[N+]([O-])c1nccn1CCS(=O)(=O)NCCOP(=O)(O)O	not

These measurements were taken from paper PMC10254852.
